# EXPERIMENT_NOTES: AUC (0 to infinity) in Sprague-Dawley rat at 5 mg/kg, po by LC-MS/MS analysis
# Assay type: ADME, organism-based
# Parameters: time infinity, dose 5 mg/kg, route oral
# STUDY_CONDITIONS: plasma
Catalogue of AUC(0-inf) readings, one per entry.
METRIC: AUC(0-inf)

SMILES_STR	RESULT
C[C@H](NC(=O)N1CCc2cccnc2[C@H]1c1ccc(C(F)(F)F)cc1)C(F)(F)F	12 µM·h
C[C@H](NC(=O)N1CCc2ccccc2[C@H]1c1ccc(C(F)(F)F)c(F)c1)C(F)(F)F	12.1 µM·h
C[C@H](NC(=O)N1CCc2cccnc2[C@H]1c1ccc(C(F)(F)F)c(F)c1)C(F)(F)F	71.9 µM·h
